Test system: oat, wild (wild oat, Avena fatua)
Assay: Test A preemergence soil spray, visual injury rating 0-100
Assay type: in vivo
Conditions: 125 g ai/ha, 10 days, 0 = no effect, 100 = complete control
Record form. Attribute: Oat, Wild plant response rating (0 to 100 scale). Fill in for each entry.
One number for each entry.

# count of solved cases: 5
CC1(C(=O)NC2CCC(C(=O)NS(C)(=O)=O)C2)CN(c2cc(F)cc(F)c2)C(=O)O1 (stereo not shown)    20
CCOC(=O)COC(=O)C1C=CC(NC(=O)C2(C)CN(c3cc(F)cc(F)c3)C(=O)O2)C1 (stereo not shown)    90
CC1(C(=O)NC2CC=C(C(=O)OCC(F)(F)F)C2)CN(c2cc(Cl)cc(Cl)c2)C(=O)O1 (stereo not shown)    30
CC1(C(=O)NC2C=CC(C(=O)OC3CCCC3)C2)CN(c2cc(F)cc(F)c2)C(=O)O1 (stereo not shown)    90
COC(=O)C1CC(NC(=O)C2(C)CN(c3cc(F)cc(F)c3)C(=O)O2)CO1 (stereo not shown)    60

Count: 2. Required value per item: Oat, Wild plant response rating (0 to 100 scale).
1. COC(=O)[C@H]1C[C@@H](NC(=O)C2(C)CN(c3cc(F)cc(F)c3)C(=O)O2)[C@H]2C[C@H]21 (stereo partly shown)
2. CCS(=O)(=O)NC(=O)C1C=CC(NC(=O)C2(C)CN(c3cc(Cl)cc(Cl)c3)C(=O)O2)C1 (stereo not shown)

1: 90; 2: 60

----------
Test system: ragweed (common ragweed, Ambrosia artemisiifolia)
Assay: Test A postemergence application, visual injury rating 0-100
Format: in vivo
Settings: Postemergence, 125 g ai/ha, 10 days; 0 is no effect, 100 is complete control
Measured attribute: Ragweed plant response rating (0 to 100 scale)

# count of solved cases: 4
CC1(C(=O)NC2C=CC(C(=O)OCc3ccc(F)cc3)C2)CN(c2cc(F)cc(F)c2)C(=O)O1 (centres unmarked)    60
CC1(C(=O)NC2C=CC(C(=O)OCC(F)(F)F)C2)CN(c2cc(F)cc(F)c2)C(=O)O1 (centres unmarked)    60
CC1(C(=O)NC2C=CC(C(=O)O)C2)CN(c2cc(F)cc(Cl)c2)C(=O)O1 (centres unmarked)    80
CNC(=O)C1C=CC(NC(=O)C2(C)CN(c3cc(Cl)cc(Cl)c3)C(=O)O2)C1 (centres unmarked)    40

Could you now consider this next compound?
Suppose we examine the compound CC(C)OC(=O)C1CCC(NC(=O)C2(C)CN(c3cc(F)cc(Cl)c3)C(=O)O2)C1 (centres unmarked) ; what Ragweed plant response rating (0 to 100 scale) value has been reported?
50

----------
System: kochia (Bassia scoparia)
Assay: Test A preemergence soil spray, visual injury rating 0-100
Type: in vivo
Conditions: 500 g ai/ha, 10 days, 0 = no effect, 100 = complete control
Record form. Attribute: Kochia plant response rating (0 to 100 scale). Fill in for each entry.
Give bare numbers.

COC(=O)C1C=CC(NC(=O)C2(C)CN(c3cc(Cl)cc(Cl)c3)C(=O)O2)C1 (stereo not shown)    90
CONC(=O)C1C=CC(NC(=O)C2(C)CN(c3cc(F)cc(F)c3)C(=O)O2)C1 (stereo not shown)    90

Count: 2. Required value per item: Kochia plant response rating (0 to 100 scale).
1. COC(=O)[C@H]1C[C@@H](NC(=O)C2(C)CN(c3cc(F)cc(F)c3)C(=O)O2)[C@H]2C[C@H]21 (stereo partly shown)
2. CC1(C(=O)N[C@H]2C=C[C@@H](C(=O)O)C2)CN(c2cc(F)cc(F)c2)C(=O)O1 (stereo partly shown)

100
100

----------
Test system: soybean (Glycine max)
Assay: Test A postemergence application, visual injury rating 0-100
Type: in vivo
Details: Postemergence, 125 g ai/ha, 10 days; 0 is no effect, 100 is complete control
Measured attribute: Soybean plant response rating (0 to 100 scale)

# count of solved cases: 3
CONC(=O)C1CC(NC(=O)C2(C)CN(c3cc(F)cc(F)c3)C(=O)O2)CO1 (stereo not drawn)    0
CCS(=O)(=O)NC(=O)C1C=CC(NC(=O)C2(C)CN(c3cc(Cl)cc(Cl)c3)C(=O)O2)C1 (stereo not drawn)    60
CC1(C(=O)NC2C=CC(C(=O)NS(C)(=O)=O)C2)CN(c2cc(F)cc(F)c2)C(=O)O1 (stereo not drawn)    60

Count: 5. Required value per item: Soybean plant response rating (0 to 100 scale).
1. CC(C)OC(=O)C1=CCC(NC(=O)C2(C)CN(c3cc(F)cc(F)c3)C(=O)O2)C1 (stereo not drawn)
2. CC(C)OC(=O)C1CC(NC(=O)C2(C)CN(c3cc(F)cc(F)c3)C(=O)O2)CO1 (stereo not drawn)
3. CC1(C(=O)NC2C=CC(C(=O)NS(=O)(=O)C(C)(C)C)C2)CN(c2cc(F)cc(F)c2)C(=O)O1 (stereo not drawn)
4. COC(=O)C1C=CC(NC(=O)C2(C)CN(c3cc(F)cc(Cl)c3)C(=O)O2)C1 (stereo not drawn)
5. CC1(C(=O)NC2C=CC(C(=O)O)C2)CN(c2cc(Cl)cc(Cl)c2)C(=O)O1 (stereo not drawn)

1: 70; 2: 60; 3: 80; 4: 90; 5: 90

Count: 5. Required value per item: Soybean plant response rating (0 to 100 scale).
1. CCOC(=O)C1CCC(NC(=O)C2(C)CN(c3cc(F)cc(Cl)c3)C(=O)O2)C1 (stereo not drawn)
2. CC1(C(=O)NC2CC=C(C(=O)OCC(F)(F)F)C2)CN(c2cc(Cl)cc(Cl)c2)C(=O)O1 (stereo not drawn)
3. CCCOC(=O)C1C=CC(NC(=O)C2(C)CN(c3cc(F)cc(F)c3)C(=O)O2)C1 (stereo not drawn)
4. CSCCOC(=O)C1=CCC(NC(=O)C2(C)CN(c3cc(F)cc(F)c3)C(=O)O2)C1 (stereo not drawn)
5. CC1(C(=O)NC2C=CC(C(=O)OC3CCCC3)C2)CN(c2cc(F)cc(F)c2)C(=O)O1 (stereo not drawn)

60
90
70
90
70

----------
Test system: kochia (Bassia scoparia)
Experiment: Test A postemergence application, visual injury rating 0-100
Type: in vivo
Settings: Postemergence, 125 g ai/ha, 10 days; 0 is no effect, 100 is complete control
Measured attribute: Kochia plant response rating (0 to 100 scale)
One number for each entry.

Count: 4. Required value per item: Kochia plant response rating (0 to 100 scale).
1. CC1(C(=O)NC2C=CC(C(=O)OC3CCCC3)C2)CN(c2cc(F)cc(F)c2)C(=O)O1 (stereo not shown)
2. CNC(=O)C1CCC(NC(=O)C2(C)CN(c3cc(F)cc(F)c3)C(=O)O2)C1 (stereo not shown)
3. CCOC(=O)C1C=CC(NC(=O)C2(C)CN(c3cc(F)cc(Cl)c3)C(=O)O2)C1 (stereo not shown)
4. CCCOC(=O)C1C=CC(NC(=O)C2(C)CN(c3cc(F)cc(F)c3)C(=O)O2)C1 (stereo not shown)

80
0
70
70

----------
Record form. Attribute: Foxtail, Green plant response rating (0-100). Fill in for each entry.
Tested on: green foxtail (Setaria viridis)
Assay: Test A preemergence soil spray, visual injury rating 0-100
Type: in vivo
Conditions: 31 g ai/ha, 10 days, 0 = no effect, 100 = complete control
Numbers only.

# count of solved cases: 2
CC1(C(=O)NC2C=CC(C(=O)OCC(F)(F)F)C2)CN(c2cc(F)cc(F)c2)C(=O)O1 (stereo not drawn)    0
CC1(C(=O)NC2CCC(C(=O)O)C2)CN(c2cc(F)cc(Cl)c2)C(=O)O1 (stereo not drawn)    20

Could you now consider this next compound?
Suppose we examine the compound CONC(=O)C1CC(NC(=O)C2(C)CN(c3cc(F)cc(F)c3)C(=O)O2)CO1 (stereo not drawn) [Compound 39] ; what Foxtail, Green plant response rating (0-100) value has been reported?
0

----------
Tested on: wheat (Triticum aestivum)
Assay: Test A preemergence soil spray, visual injury rating 0-100
Assay type: in vivo
Conditions: 125 g ai/ha, 10 days, 0 = no effect, 100 = complete control
Record form. Attribute: Wheat plant response rating (0 to 100 scale). Fill in for each entry.
Numbers only.

CONC(=O)C1CC(NC(=O)C2(C)CN(c3cc(F)cc(F)c3)C(=O)O2)CO1 (centres unmarked) [Compound 40]    90
CC(C)COC(=O)C1C=CC(NC(=O)C2(C)CN(c3cc(Cl)cc(Cl)c3)C(=O)O2)C1 (centres unmarked)    70
COCCOC(=O)C1C=CC(NC(=O)C2(C)CN(c3cc(F)cc(F)c3)C(=O)O2)C1 (centres unmarked)    90
CC1(C(=O)NC2CC=C(C(=O)OCC(F)(F)F)C2)CN(c2cc(F)cc(F)c2)C(=O)O1 (centres unmarked)    100
CC1(C(=O)NC2CC=C(C(=O)O)C2)CN(c2cc(F)cc(F)c2)C(=O)O1 (centres unmarked)    90
CC(C)OC(=O)C1C=CC(NC(=O)C2(C)CN(c3cc(Cl)cc(Cl)c3)C(=O)O2)C1 (centres unmarked)    90
CC(C)OC(=O)C1CCC(NC(=O)C2(C)CN(c3cc(F)cc(F)c3)C(=O)O2)C1 (centres unmarked)    90

Could you now consider this next compound?
Suppose we examine the compound CCOC(=O)C1=CCC(NC(=O)C2(C)CN(c3cc(Cl)cc(Cl)c3)C(=O)O2)C1 (centres unmarked) ; what Wheat plant response rating (0 to 100 scale) value has been reported?
80
